The measurements presented in this section are drawn from ChEMBL document CHEMBL5352428.

Molecular target: UniProt:P0A749
Experiment: Irreversible inhibition of recombinant Escherichia coli MurA expressed in Escherichia coli NiCo21 using UNAG and PEP as substrate assessed as second-order rate constant for enzyme inactivation, ratio of Kinact/Ki preincubated for 30 mins in presence of UNAG followed by 100 fold dilution and PEP substrate addition and measured after 15 mins by malachite green based colorimetric assay
Settings: time 45.0 min
REPORTED ENDPOINT: Ratio

Some solved entries appear below for comparison.
> print(dat)
                                   compound              value
1  O=C(CCl)N1CCC(N2CCC(Br)C2=O)C1 (stereo unspecified)  2.99 10^-4/µM/min
2  O=C(CCl)NC1CCCC2CCCCC21 (stereo unspecified)  4.78 10^-3/µM/min
3                O=C(CCl)N1CCC(Sc2nccs2)CC1  7.13 10^-3/µM/min
4                    O=C(CCl)Nc1ccc2nsnc2c1  4.84 10^-4/µM/min
5             CS(=O)(=O)NC1CCN(C(=O)CCl)CC1  4.16 10^-4/µM/min

IN: Return Ratio (reported value) for this compound: Cc1ccc(S(=O)(=O)NC(=O)CC2CCN(C(=O)CCl)CC2)cc1
OUT: 2.79 10^-4/µM/min

----------
Target: UniProt:P0A749
Experiment: Inhibition of recombinant Escherichia coli MurA expressed in Escherichia coli NiCo21 using UNAG and PEP as substrate preincubated for 30 mins in presence of UNAG followed by PEP substrate addition and measured after 15 mins by malachite green based colorimetric assay
The entries below come with measured pIC50 values attached.
Interpret pIC50 as the negative base-10 log of the concentration measured in mol/L.

> print(dat)
                                   molecule  value
1  Cc1ccc(S(=O)(=O)NC(=O)CC2CCN(C(=O)CCl)CC2)cc1   3.86
2                    O=C(CCl)Nc1ccc2nsnc2c1   3.54
3   COc1ccc2nc(SC3CCN(C(=O)CCl)CC3)[nH]c2n1   3.76
4             CS(=O)(=O)NC1CCN(C(=O)CCl)CC1   3.62
5                O=C(CCl)N1CCC(Sc2nccs2)CC1   3.71

Turning now to a further molecule:
IN: Return pIC50 (reported value) for this molecule: O=C(CCl)N1CCC(Sc2nnc(-c3ccccc3)o2)CC1
OUT: 3.79

----------
Molecular target: UDP-N-acetylglucosamine 1-carboxyvinyltransferase (Escherichia coli K-12)
Sequence (P0A749 whole entry): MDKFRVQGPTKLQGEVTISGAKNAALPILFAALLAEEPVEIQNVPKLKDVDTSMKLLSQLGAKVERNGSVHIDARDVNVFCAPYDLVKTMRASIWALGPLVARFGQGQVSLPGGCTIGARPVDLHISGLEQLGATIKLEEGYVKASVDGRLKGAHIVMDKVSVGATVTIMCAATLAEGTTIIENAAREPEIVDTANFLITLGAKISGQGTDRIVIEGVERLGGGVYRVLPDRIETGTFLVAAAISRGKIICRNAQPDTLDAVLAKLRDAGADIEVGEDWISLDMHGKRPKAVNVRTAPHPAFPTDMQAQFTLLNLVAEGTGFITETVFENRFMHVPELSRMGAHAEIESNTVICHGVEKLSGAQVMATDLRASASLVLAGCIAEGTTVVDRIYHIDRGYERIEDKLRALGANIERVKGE
Experiment: Inhibition of recombinant Escherichia coli MurA expressed in Escherichia coli NiCo21 assessed as residual activity using UNAG and PEP as substrate at 500 uM preincubated for 30 mins in presence of UNAG followed by PEP substrate addition and measured after 15 mins by malachite green based colorimetric assay
Conditions: time 45.0 min
The entries below come with measured Activity values attached.
A number alone suffices; assume %.

> print(dat)
            compound  reported.endpoint  unit.abbreviation  value
1  O=C(CCl)Nc1ccncc1           Activity                  %     77

IN: Return Activity (reported value) for this compound: O=C(CCl)N1CCC(c2ccccc2)CC1
OUT: 71

IN: Return Activity (reported value) for this compound: CC(C)(C)OC(=O)NC1CCN(C(=O)CCl)CC1
OUT: 61

IN: Return Activity (reported value) for this compound: O=C(CCl)Nc1ccc(-c2nnn[nH]2)cc1
OUT: 100

IN: Return Activity (reported value) for this compound: O=C(CCl)Nc1ccc2ccccc2c1
OUT: 83

IN: Return Activity (reported value) for this compound: CC(C)CNC(=O)CCl
OUT: 90

IN: Return Activity (reported value) for this compound: CCOC(=O)C1CCN(C(=O)CCl)CC1
OUT: 100

IN: Return Activity (reported value) for this compound: O=C(CCl)Nc1ccc(C(F)(F)F)cc1
OUT: 77

IN: Return Activity (reported value) for this compound: O=C(CCl)NC1CCCC(OP(=O)(Oc2ccccc2)Oc2ccccc2)C1 (stereo not drawn)
OUT: 89

IN: Return Activity (reported value) for this compound: COc1ccc(N2CCN(C(=O)CCl)CC2)cc1
OUT: 77

IN: Return Activity (reported value) for this compound: CCOC(=O)N1CCN(C(=O)CCl)CC1
OUT: 95
